Assay: Plasma clearance in Beagle dog at 0.125 mg/kg, iv
Assay type: ADME, organism-based, Canis lupus familiaris
Design: dose 0.125 mg/kg, route intravenous
measured attribute: clearance (mL/min/kg)
Only the number, expressed in mL/min/kg, is required.

clearance lookup needed for N#Cc1cc(Cl)cc(Oc2c(Cl)ccc3c2nnn3Cc2n[nH]c3nc(N)ccc23)c1 , thanks.
2.2

###

Test: Bioavailability in Beagle dog at 1 mg/kg, po and 0.25 mg/kg, iv
Format: ADME, organism-based, Canis lupus familiaris
Conditions: in vivo
measured attribute: bioavailability (%)
Please reply with the bare figure in % and do not write the unit itself.

What value of bioavailability has been recorded for this entry: N#Cc1cc(Cl)cc(Oc2cc(OCc3n[nH]c4ncccc34)ccc2Cl)c1
3
